- Tested on: Methicillin-resistant S. aureus USA 300
- Format: cell-based, Staphylococcus aureus
- Protocol Conditions: USA 300, 18 h
Non-standard residues stand in square brackets, D forms with d. Residues, ends and D or L forms follow the SMILES beside them. Gly(Nα-4-Cl-benzyl) = O=C(O)CNCc1ccc(Cl)cc1; N(4-Br-benzyl)Gly = O=C(O)CNCc1ccc(Br)cc1; N(4-F-Bzl)Gly = O=C(O)CNCc1ccc(F)cc1; NBzl(4-I)Gly = O=C(O)CNCc1ccc(I)cc1; Nphe = O=C(O)CNCc1ccccc1; Nlys = NCCCCNCC(=O)O
Documented Minimal inhibitory concentration MRSA^c across a set of compounds
Only the number, expressed in mg/L, is required.

Before answering, review these 6 worked examples.
Compound: NCCCCNCC(=O)N(CC(=O)N(CCCCN)CC(=O)N(CC(=O)N(CCCCN)CC(=O)N(CC(=O)N(CCCCN)CC(=O)N(CC(=O)N(CCCCN)CC(=O)N(CC(=O)N(CCCCN)CC(=O)N(CC(N)=O)Cc1ccc(Br)cc1)Cc1ccccc1)Cc1ccc(Br)cc1)Cc1ccccc1)Cc1ccc(Br)cc1)Cc1ccccc1 [Compound 35] (H-[Nlys][Nphe][Nlys][N(4-Br-benzyl)Gly][Nlys][Nphe][Nlys][N(4-Br-benzyl)Gly][Nlys][Nphe][Nlys][N(4-Br-benzyl)Gly]-NH2)
Observed Property: Minimal inhibitory concentration MRSA^c
Reported Result: 8

Compound: NCCCCNCC(=O)N(CC(=O)N(CCCCN)CC(=O)N(CC(=O)N(CCCCN)CC(=O)N(CC(=O)N(CCCCN)CC(=O)N(CC(=O)N(CCCCN)CC(=O)N(CC(N)=O)Cc1ccc(F)cc1)Cc1ccccc1)Cc1ccc(F)cc1)Cc1ccccc1)Cc1ccc(F)cc1 [Compound 24] (H-[Nlys][N(4-F-Bzl)Gly][Nlys][Nphe][Nlys][N(4-F-Bzl)Gly][Nlys][Nphe][Nlys][N(4-F-Bzl)Gly]-NH2)
Observed Property: Minimal inhibitory concentration MRSA^c
Reported Result: 256

Compound: NCCCCNCC(=O)N(CC(=O)N(CCCCN)CC(=O)N(CC(=O)N(CCCCN)CC(=O)N(CC(=O)N(CCCCN)CC(=O)N(CC(=O)N(CCCCN)CC(=O)N(CC(N)=O)Cc1ccc(I)cc1)Cc1ccc(I)cc1)Cc1ccc(I)cc1)Cc1ccc(I)cc1)Cc1ccc(I)cc1 [Compound 23] (H-[Nlys][NBzl(4-I)Gly][Nlys][NBzl(4-I)Gly][Nlys][NBzl(4-I)Gly][Nlys][NBzl(4-I)Gly][Nlys][NBzl(4-I)Gly]-NH2)
Observed Property: Minimal inhibitory concentration MRSA^c
Reported Result: 16

Compound: NCCCCNCC(=O)N(CC(=O)N(CCCCN)CC(=O)N(CC(=O)N(CCCCN)CC(=O)N(CC(=O)N(CCCCN)CC(=O)N(CC(=O)N(CCCCN)CC(=O)N(CC(=O)N(CCCCN)CC(=O)N(CC(N)=O)Cc1ccc(I)cc1)Cc1ccccc1)Cc1ccc(I)cc1)Cc1ccccc1)Cc1ccc(I)cc1)Cc1ccccc1 [Compound 36] (H-[Nlys][Nphe][Nlys][NBzl(4-I)Gly][Nlys][Nphe][Nlys][NBzl(4-I)Gly][Nlys][Nphe][Nlys][NBzl(4-I)Gly]-NH2)
Observed Property: Minimal inhibitory concentration MRSA^c
Reported Result: 4

Compound: NCCCCNCC(=O)N(CC(=O)N(CCCCN)CC(=O)N(CC(=O)N(CCCCN)CC(=O)N(CC(=O)N(CCCCN)CC(=O)N(CC(N)=O)Cc1ccc(F)cc1)Cc1ccc(F)cc1)Cc1ccc(F)cc1)Cc1ccc(F)cc1 [Compound 11] (H-[Nlys][N(4-F-Bzl)Gly][Nlys][N(4-F-Bzl)Gly][Nlys][N(4-F-Bzl)Gly][Nlys][N(4-F-Bzl)Gly]-NH2)
Observed Property: Minimal inhibitory concentration MRSA^c
Reported Result: 256

Compound: NCCCCNCC(=O)N(CC(=O)N(CCCCN)CC(=O)N(CC(=O)N(CCCCN)CC(=O)N(CC(=O)N(CCCCN)CC(=O)N(CC(N)=O)Cc1ccc(I)cc1)Cc1ccc(I)cc1)Cc1ccc(I)cc1)Cc1ccc(I)cc1 [Compound 14] (H-[Nlys][NBzl(4-I)Gly][Nlys][NBzl(4-I)Gly][Nlys][NBzl(4-I)Gly][Nlys][NBzl(4-I)Gly]-NH2)
Observed Property: Minimal inhibitory concentration MRSA^c
Reported Result: 4

Query: Look up Minimal inhibitory concentration MRSA^c for this compound: NCCCCNCC(=O)N(CC(=O)N(CCCCN)CC(=O)N(CC(=O)N(CCCCN)CC(=O)N(CC(=O)N(CCCCN)CC(=O)N(CC(=O)N(CCCCN)CC(=O)N(CC(N)=O)Cc1ccc(Br)cc1)Cc1ccc(Br)cc1)Cc1ccc(Br)cc1)Cc1ccc(Br)cc1)Cc1ccc(Br)cc1 [Compound 22] (H-[Nlys][N(4-Br-benzyl)Gly][Nlys][N(4-Br-benzyl)Gly][Nlys][N(4-Br-benzyl)Gly][Nlys][N(4-Br-benzyl)Gly][Nlys][N(4-Br-benzyl)Gly]-NH2)
Result: 4

Query: Look up Minimal inhibitory concentration MRSA^c for this compound: NCCCCNCC(=O)N(CC(=O)N(CCCCN)CC(=O)N(CC(=O)N(CCCCN)CC(=O)N(CC(=O)N(CCCCN)CC(=O)N(CC(=O)N(CCCCN)CC(=O)N(CC(N)=O)Cc1ccc(Br)cc1)Cc1ccccc1)Cc1ccc(Br)cc1)Cc1ccccc1)Cc1ccc(Br)cc1 [Compound 26] (H-[Nlys][N(4-Br-benzyl)Gly][Nlys][Nphe][Nlys][N(4-Br-benzyl)Gly][Nlys][Nphe][Nlys][N(4-Br-benzyl)Gly]-NH2)
Result: 8

Query: Look up Minimal inhibitory concentration MRSA^c for this compound: NCCCCNCC(=O)N(CC(=O)N(CCCCN)CC(=O)N(CC(=O)N(CCCCN)CC(=O)N(CC(=O)N(CCCCN)CC(=O)N(CC(N)=O)Cc1ccc(Cl)cc1)Cc1ccccc1)Cc1ccc(Cl)cc1)Cc1ccccc1 [Compound 16] (H-[Nlys][Nphe][Nlys][Gly(Nα-4-Cl-benzyl)][Nlys][Nphe][Nlys][Gly(Nα-4-Cl-benzyl)]-NH2)
Result: 16

Query: Look up Minimal inhibitory concentration MRSA^c for this compound: NCCCCNCC(=O)N(CC(=O)N(CCCCN)CC(=O)N(CC(=O)N(CCCCN)CC(=O)N(CC(N)=O)Cc1ccc(I)cc1)Cc1ccccc1)Cc1ccc(I)cc1 [Compound 9] (H-[Nlys][NBzl(4-I)Gly][Nlys][Nphe][Nlys][NBzl(4-I)Gly]-NH2)
Result: 16
